Measurement record for adenosine A2A receptor (Homo sapiens, UniProt P29274); quantity recorded: pKi.
Where a name gives a salt, the structure may show the parent alone.
Lab note: report pKi as minus log10 of the concentration in molar units, number only.

Examples from the recorded data:
Notebook entry, adenosine A2A receptor (Homo sapiens, UniProt P29274) assay: pKi of O=C(N[C@@H]1CCN(C(=O)NC2CCN(C(=O)OCc3ccccc3)CC2)C1)N[C@@H]1CCN(c2nc(NCC(c3ccccc3)c3ccccc3)c3ncn([C@@H]4O[C@H](CO)[C@@H](O)[C@H]4O)c3n2)C1 [Example 24, trifluoroacetate] = ? 7.23

Another molecule to check: `CCc1cc([C@H]2O[C@@H](n3cnc4c(N[C@H](CO)Cc5ccccc5)nc(N5CC[C@@H](N6CCCC6)C5)nc43)[C@H](O)[C@@H]2O)on1` 8.70

Next:
Notebook entry, adenosine A2A receptor (Homo sapiens, UniProt P29274) assay: pKi of O=C(NC1CCN(c2ccccn2)CC1)N[C@@H]1CCN(c2nc(NCC(c3ccccc3)c3ccccc3)c3ncn([C@@H]4O[C@H](CO)[C@@H](O)[C@H]4O)c3n2)C1 [Example 9, trifluoroacetate] = ? 6.80

Another molecule to check: `CCn1nnc([C@H]2O[C@@H](n3cnc4c(NCC(c5ccccc5)c5ccccc5)nc(N5CC[C@@H](NC(=NCc6ccccn6)NC#N)C5)nc43)[C@H](O)[C@@H]2O)n1` 8.40

Another molecule to check: CCn1nnc([C@H]2O[C@@H](n3cnc4c(NCCc5ccc(S(N)(=O)=O)cc5)nc(N5CC[C@@H](NC(=O)N[C@@H]6CCNC6)C5)nc43)[C@H](O)[C@@H]2O)n1 [Example 108, trifluoroacetate] 8.30
